- Test system: SF-268 CNS
- experimentNotes: NCI-60 one-dose screen, 48 h (100 = growth as untreated, 0 = no growth, -100 = all killed)
- conditionDescription: 10 µM unless noted
The panel holds about 83,000 compounds, 20% with a hit somewhere; the sample as a whole holds those more often.
Note to self: growth under 80% means TRUE, ties and anything higher get FALSE.

inputSmiles	assignedCategory
O=C(NNc1nc2cc(F)cc(F)c2n2cccc12)c1cccnn1	TRUE
CC(C)[C@H]1c2[nH]c3ccccc3c2C[C@H]2C(=O)N(CCCCCCC(=O)NO)CC(=O)N12	FALSE

**Query** Input `NC(=O)c1c(NC(=O)c2ccc(C(F)(F)F)cc2)sc2c1CCC(=O)C2` ; condition: growth strictly below 80%. Does it hold?
**Result** TRUE

**Query** Does `Cc1ccc([C@H]2c3[nH]c4ccccc4c3C[C@H]3C(=O)N(CCCCCCC(=O)NO)CC(=O)N23)s1` have growth strictly under 80%?
**Result** FALSE
